Molecular target: recombinant human delta (DOR) opioid receptor (Homo sapiens (Human), UniProt P41143)
Sequence (P41143 whole entry, looked up): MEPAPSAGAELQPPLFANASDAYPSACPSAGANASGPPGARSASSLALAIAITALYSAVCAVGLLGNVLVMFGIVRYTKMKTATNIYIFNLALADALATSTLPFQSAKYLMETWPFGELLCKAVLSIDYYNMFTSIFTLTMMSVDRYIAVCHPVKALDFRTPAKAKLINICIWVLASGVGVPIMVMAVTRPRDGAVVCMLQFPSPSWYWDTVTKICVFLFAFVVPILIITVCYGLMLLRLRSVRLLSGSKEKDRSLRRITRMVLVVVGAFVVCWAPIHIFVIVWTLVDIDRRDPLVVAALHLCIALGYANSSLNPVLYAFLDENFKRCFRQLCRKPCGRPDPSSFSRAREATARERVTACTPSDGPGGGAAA
Assay: Opioid receptor radioligand binding assay, DOR
Conditions: HEK293 cell membranes, 0.5 nM [3H]DADLE; read-out: DOR, IC50
Square brackets hold non-standard residues; d marks the D form. Peptide text beside a SMILES is read from it. * marks the point of attachment. Pyrrolidinyl(3-NH2,3-CO2Me) = COC(=O)C1(N)CCN(*)C1; dAla(cPr) = N[C@H](CC1CC1)C(=O)O
OUTCOME MEASURE: IC50

[ask] // IC50 lookup, key: `CCOC(=O)N1CCN(C(=O)[C@@H](CCCCN)NC(=O)[C@@H](CC(C)C)NC(=O)[C@@H](Cc2ccccc2)NC(=O)[C@H](N)Cc2ccccc2)CC1`
[reply] > 10 µM

[ask] Request the reported IC50 associated with `CCCN(C(=O)OC)C1CCN(C(=O)[C@@H](CCCCN)NC(=O)[C@@H](CC(C)C)NC(=O)[C@@H](Cc2ccccc2)NC(=O)[C@H](N)Cc2ccccc2)CC1`
[reply] > 10 µM

[ask] Record request: IC50 value, item `COCCOCCOCCNC(=O)[C@@H](CCCCN)NC(=O)[C@@H](CC(C)C)NC(=O)[C@@H](Cc1ccccc1)NC(=O)[C@H](N)Cc1ccccc1`
[reply] > 10 µM

[ask] I'd like to know its IC50. The compound in question is `CCNC(=O)C(=O)NC1CCN(C(=O)[C@@H](CCCCN)NC(=O)[C@@H](CC(C)C)NC(=O)[C@@H](Cc2ccccc2)NC(=O)[C@H](N)Cc2ccccc2)CC1`
[reply] > 10 µM

[ask] Tell me the measured IC50 of `CC(C)C[C@@H](NC(=O)[C@@H](Cc1ccccc1)NC(=O)[C@H](N)Cc1ccccc1)C(=O)N[C@H](CCCCN)C(=O)NC1CCN(C(=O)C(=O)NC2CC2)CC1` , please.
[reply] > 10 µM

[ask] Any idea what its IC50 is? The compound is `CC(C)C[C@@H](NC(=O)[C@@H](Cc1ccccc1)NC(=O)[C@H](N)Cc1ccccc1)C(=O)N[C@H](CCCCN)C(=O)N1CCOCCOCCOCC1`
[reply] > 10 µM

[ask] I'd like to know its IC50. The compound in question is CC(C)C[C@@H](NC(=O)[C@@H](Cc1ccccc1)NC(=O)[C@H](N)Cc1ccccc1)C(=O)N[C@H](CCCCN)C(=O)N1CCC(NC(=O)C(N)C(=O)O)CC1 (some centres unmarked)
[reply] > 10 µM

[ask] Query (compound): CC(C)C[C@@H](NC(=O)[C@@H](Cc1ccccc1)NC(=O)[C@H](N)Cc1ccccc1)C(=O)N[C@H](CCCCN)C(=O)N1CCC(NC(=O)C(N)=O)CC1 [Compound 13-57] ; field requested: IC50
[reply] > 10 µM

[ask] Looking for the measured IC50 of `CC(C)C[C@@H](NC(=O)[C@@H](Cc1ccccc1)NC(=O)[C@H](N)Cc1ccccc1)C(=O)N[C@H](CCCCN)C(=O)N1CCC(NC(=O)C(=O)NC2CC2)CC1` , can you help?
[reply] > 10 µM

[ask] Could you share which IC50 value was measured for COC(=O)C1(N)CCN(C(=O)[C@@H](CCCCN)NC(=O)[C@@H](CC2CC2)NC(=O)[C@@H](Cc2ccccc2)NC(=O)[C@H](N)Cc2ccccc2)C1 (some centres unmarked) [Compound 118] (H-[dF][dF][dAla(cPr)][dK]-{Pyrrolidinyl(3-NH2,3-CO2Me)}) ?
[reply] > 10 µM

[ask] Using the record for `CC(C)C[C@@H](NC(=O)[C@@H](Cc1ccccc1)NC(=O)[C@H](N)Cc1ccccc1)C(=O)N[C@H](CCCCN)C(=O)N1CCC2(CC1)CNC(=O)N2` , report its IC50.
[reply] > 10 µM

[ask] What IC50 value was documented for this compound, `CC(C)C[C@@H](NC(=O)[C@@H](Cc1ccccc1)NC(=O)[C@H](N)Cc1ccccc1)C(=O)N[C@H](CCCCN)C(=O)N1CCC2(CC1)NC(=O)NC2=O` ?
[reply] > 10 µM

[ask] Recorded IC50 for `CC(C)C[C@@H](NC(=O)[C@@H](Cc1ccccc1)NC(=O)[C@H](N)Cc1ccccc1)C(=O)N[C@H](CCCCN)C(=O)NCCOCCO` , please?
[reply] > 10 µM

[ask] Name the reported IC50 value associated with the compound CCOC(=O)C(N)C(=O)NC1CCN(C(=O)[C@@H](CCCCN)NC(=O)[C@@H](CC(C)C)NC(=O)[C@@H](Cc2ccccc2)NC(=O)[C@H](N)Cc2ccccc2)CC1 (some centres unmarked)
[reply] > 10 µM

[ask] For the compound CNCCOC(=O)C1(N)CCN(C(=O)[C@@H](CCCCN)NC(=O)[C@@H](CC(C)C)NC(=O)[C@@H](Cc2ccccc2)NC(=O)[C@H](N)Cc2ccccc2)C1 (some centres unmarked) , what IC50 is on record?
[reply] > 10 µM

[ask] Looking for the measured IC50 of `COCCN(CCOC)C(=O)[C@@H](CCCCN)NC(=O)[C@@H](CC(C)C)NC(=O)[C@@H](Cc1ccccc1)NC(=O)[C@H](N)Cc1ccccc1` , can you help?
[reply] > 10 µM

[ask] Entry CCCC[C@@H](NC(=O)[C@@H](Cc1ccccc1)NC(=O)[C@H](N)Cc1ccccc1)C(=O)N[C@H](Cc1cnc(N)nc1)C(=O)N1CCC(N)(C(=O)OC)C1 (some centres unmarked) : reported IC50 = ?
[reply] > 10 µM

[ask] If you can, please state the reported IC50 value of COC(=O)C1(N)CCN(C(=O)[C@@H](CCCNC(=N)N)NC(=O)[C@@H](CC2CC2)NC(=O)[C@@H](Cc2ccccc2)NC(=O)[C@H](N)Cc2ccccc2)C1 (some centres unmarked) [Compound 133] (H-[dF][dF][dAla(cPr)][dR]-{Pyrrolidinyl(3-NH2,3-CO2Me)}) .
[reply] > 10 µM

[ask] Value lookup for IC50; key = COCCOC(=O)C1(N)CCN(C(=O)[C@@H](CCCCN)NC(=O)[C@@H](CC(C)C)NC(=O)[C@@H](Cc2ccccc2)NC(=O)[C@H](N)Cc2ccccc2)C1 (some centres unmarked)
[reply] > 10 µM

[ask] Item `CC(C)C[C@@H](NC(=O)[C@@H](Cc1ccccc1)NC(=O)[C@H](N)Cc1ccccc1)C(=O)N[C@H](CCCCN)C(=O)N1CCN(C(=O)C(=O)N(C)C)CC1` has what recorded IC50?
[reply] > 10 µM

---

Give pIC50 for every item shown.
Biological target: recombinant human kappa (KOR) opioid receptor (Homo sapiens (Human))
Assay: biochemical
Assay type: binding
Conditions: HEK293 cell membranes, 0.5 nM [3H]diprenorphine
# pIC50 = -log10(concentration in molar units)

[ask] Recorded pIC50 of COCCOC(=O)C1(N)CCN(C(=O)[C@@H](CCCCN)NC(=O)[C@@H](CC(C)C)NC(=O)[C@@H](Cc2ccccc2)NC(=O)[C@H](N)Cc2ccccc2)C1 (some centres unmarked) , please.
[reply] 9.48

[ask] I would be grateful if you could share the reported pIC50 for `CC(C)C[C@@H](NC(=O)[C@@H](Cc1ccccc1)NC(=O)[C@H](N)Cc1ccccc1)C(=O)N[C@H](CCCCN)C(=O)N1CCC(NC(=O)CC[C@H](N)C(N)=O)CC1` .
[reply] 9.68

[ask] For `COCCOCCOCCNC(=O)[C@@H](CCCCN)NC(=O)[C@@H](CC(C)C)NC(=O)[C@@H](Cc1ccccc1)NC(=O)[C@H](N)Cc1ccccc1` , what is its reported pIC50?
[reply] 8.23

[ask] Please report the recorded pIC50 for `CNC(=O)C(=O)N1CCC(NC(=O)[C@@H](CCCCN)NC(=O)[C@@H](CC(C)C)NC(=O)[C@@H](Cc2ccccc2)NC(=O)[C@H](N)Cc2ccccc2)CC1` .
[reply] 8.07

[ask] Please give the measured pIC50 for this compound: `COC(=O)/C=C/C(=O)N1CCN(C(=O)[C@@H](CCCCN)NC(=O)[C@@H](CC(C)C)NC(=O)[C@@H](Cc2ccccc2)NC(=O)[C@H](N)Cc2ccccc2)CC1`
[reply] 9.28

---

Biological target: recombinant human kappa (KOR) opioid receptor (Homo sapiens (Human))
Assay: biochemical
Assay type: binding
Settings: HEK293 cell membranes, 0.5 nM [3H]diprenorphine
Square brackets hold non-standard residues; d marks the D form. Peptide text beside a SMILES is read from it. * marks the point of attachment. ξ: configuration not given here. Piperidin1yl(4-NH2,4-CO2Me) = COC(=O)C1(N)CCN(*)CC1; Pyrrolidino(3-NH2-3-COOH) = NC1(C(=O)O)CCN(*)C1; dAla(cPr) = N[C@H](CC1CC1)C(=O)O; Aic = NC1(C(=O)O)Cc2ccccc2C1; ξL = CC(C)CC(N)C(=O)O
OUTCOME MEASURE: IC50 (nM)
Your answer should be a plain number; it is taken to be in nM.

[ask] I'd like to know its IC50. The compound in question is N=C(N)NCCC[C@@H](NC(=O)[C@@H](CC1CC1)NC(=O)[C@@H](Cc1ccccc1)NC(=O)[C@H](N)Cc1ccccc1)C(=O)N1CCC(N)(C(=O)O)C1 (stereo partly shown) [Compound 134] (H-[dF][dF][dAla(cPr)][dR]-{Pyrrolidino(3-NH2-3-COOH)})
[reply] 2.35

[ask] Consider the compound CC(C)C[C@@H](NC(=O)[C@@H](Cc1ccccc1)NC(=O)[C@H](N)Cc1ccccc1)C(=O)N[C@H](CCCCN)C(=O)N1CCC(NC(=O)/C=C\C(=O)NC(N)=O)CC1 [Compound 13-54] and give its measured IC50.
[reply] 0.21

[ask] IC50 for COC(=O)C1(N)CCN(C(=O)[C@@H](CCCCN)NC(=O)C(CC(C)C)NC(=O)[C@@H](Cc2ccccc2)NC(=O)C2(N)Cc3ccccc3C2)CC1 (stereo partly shown) [Compound 158] (H-[Aic][dF][ξL][dK]-{Piperidin1yl(4-NH2,4-CO2Me)}) ?
[reply] 0.9

[ask] What value of IC50 has been recorded for this entry: COC(=O)C1(N)CCN(C(=O)[C@@H](CCCNC(=N)N)NC(=O)[C@H]2CCCN2C(=O)[C@@H](Cc2ccccc2)NC(=O)[C@H](N)Cc2ccccc2)CC1 [Compound 22] (H-[dF][dF][dP][dR]-{Piperidin1yl(4-NH2,4-CO2Me)})
[reply] 200
